Each recorded value in this set is attributed to patent US20060020110A1.

molecular target: HBcAg (Hepatitis B virus genotype D subtype ayw); conditions: deviation of the OD from the mean OD of all peptides
Sequence (P03146 whole entry): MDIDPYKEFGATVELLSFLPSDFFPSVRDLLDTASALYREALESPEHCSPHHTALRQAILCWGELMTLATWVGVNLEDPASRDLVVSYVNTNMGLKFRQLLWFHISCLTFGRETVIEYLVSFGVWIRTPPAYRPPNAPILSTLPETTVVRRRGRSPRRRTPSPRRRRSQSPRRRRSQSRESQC
Decision: Std. Deviation from the mean beneath 0.7 gives fulfilled; Std. Deviation from the mean meeting or exceeding 0.7 gives not fulfilled.

Q. Given ALESPEHCSPHHTALRQAIL [SEQ. ID. No. 99] , is recorded Std. Deviation from the mean strictly lower than 0.7?
A. fulfilled

Further cases:
Q. Determine if SRDLVVSYVNTNMGLKFRQL [SEQ. ID. No. 103] shows Std. Deviation from the mean strictly lower than 0.7.
A. fulfilled

Q. For RRGRSPRRRTPSPRRRRSQS [SEQ. ID. No. 110] , is the recorded Std. Deviation from the mean below the cut-off of 0.7?
A. fulfilled

Q. Given the entry WVGVNLEDPASRDLVVSYVN [SEQ. ID. No. 102] , would its reported Std. Deviation from the mean be below 0.7?
A. not fulfilled

Q. Bench note: check whether AYRPPNAPILSTLPETTVVR [SEQ. ID. No. 108] shows Std. Deviation from the mean below 0.7
A. not fulfilled

Q. Find out if reported Std. Deviation from the mean for TNMGLKFRQLLWFHISCLTF [SEQ. ID. No. 104] is less than 0.7
A. fulfilled

Q. Record SDFFPSVRDLLDTASALYRE [SEQ. ID. No. 97] : is its Std. Deviation from the mean strictly below 0.7?
A. not fulfilled

Q. I wonder whether STLPETTVVRRRGRSPRRRT [SEQ. ID. No. 109] has Std. Deviation from the mean below 0.7. Can you tell?
A. fulfilled

---

biological target: HBcAg (Hepatitis B virus genotype D subtype ayw); settings: HBcAg coated 1 μg/ml; 5 μg SEQ. ID. No. 74 + 5 μg HBcAg peptide; no inhibitor OD 1.454
Field: OD at 490 nm, bound peptide SEQ. ID. No. 74. Provide a value for each of the sequences that follow.
Numbers only.

The examples below pair each entry with its known result.
Q. Look up OD at 490 nm, bound peptide SEQ. ID. No. 74: AYRPPNAPILSTLPETTVVR [SEQ. ID. No. 108]
A. 1.564

Q. // returns reported OD at 490 nm, bound peptide SEQ. ID. No. 74 for input LDTASALYREALESPEHCSP [SEQ. ID. No. 98]
A. 1.589

Q. Look at this sequence and give its reported OD at 490 nm, bound peptide SEQ. ID. No. 74. LWFHISCLTFGRETVIEYLV [SEQ. ID. No. 105]
A. 1.129

List reported OD at 490 nm, bound peptide SEQ. ID. No. 74 for each of these sequences:
1. WVGVNLEDPASRDLVVSYVN [SEQ. ID. No. 102]
2. ATVELLSFLPSDFFPSVRDL [SEQ. ID. No. 96]
3. SDFFPSVRDLLDTASALYRE [SEQ. ID. No. 97]
4. RRGRSPRRRTPSPRRRRSQS [SEQ. ID. No. 110]
5. CWGELMTLATWVGVNLEDPA [SEQ. ID. No. 101]
6. SRDLVVSYVNTNMGLKFRQL [SEQ. ID. No. 103]
7. PSPRRRRSQSPRRRRSQSRESQC [SEQ. ID. No. 111]

A.
1.411
1.387
1.576
0.732
1.395
0.386
0.678

State recorded OD at 490 nm, bound peptide SEQ. ID. No. 74 for all listed sequences.
1. TNMGLKFRQLLWFHISCLTF [SEQ. ID. No. 104]
2. STLPETTVVRRRGRSPRRRT [SEQ. ID. No. 109]
3. ALESPEHCSPHHTALRQAIL [SEQ. ID. No. 99]

A.
1: 0.058; 2: 0.811; 3: 1.372

Q. I am curious: what OD at 490 nm, bound peptide SEQ. ID. No. 74 value has been reported for GRETVIEYLVSFGVWIRTPP [SEQ. ID. No. 106] ?
A. 0.832
